Origin of the recorded values: ChEMBL document CHEMBL4196208

test system: MV4-11; assay: Antiproliferative activity against human MV411 cells after 72 hrs by MTT assay; format: functional, cell-based
The source made the active and inactive calls. The calls are words filed in the database; no cut-off is given here.
endpoint_name: Activity

Sample answers from the record:
Note Activity for the compound shown: C/C=C(/C)C(=O)O[C@@H]1CCC2=CC(=O)[C@@H]([C@@]3(C)CO3)C[C@]2(C)[C@H]1C
inactive

Provide one value: measured Activity of C=C(C(CC=C(C)C)OC(=O)/C(C)=C\C)[C@@H]1C[C@H](Cl)[C@](C)(O)C(=O)[C@H]1OC(C)=O (some centres not stated)
inactive

Fill in reported Activity for this entry: C/C=C(/C)C(=O)O[C@@H]1CCC2=CC(=O)[C@H]([C@]3(C)CO3)C[C@]2(C)[C@H]1C
inactive

Return Activity (reported value) for this compound: C=C1[C@H]2[C@@H](/C(=C\C)C(=O)[C@H]2OC(=O)C(C)CC)[C@H]([C@@]2(C)CO2)[C@@H](OC(=O)C(C)CC)[C@H]1OC(=O)/C=C(\C)CC (some centres not stated)
inactive

Complete the entry with Activity for C=C(c1ccc(C)c(O)c1O)C(CC=C(C)C)OC(=O)/C(C)=C\C (configuration not stated)
inactive

Others:
Tell us which Activity value is on record for C=C(C(CC=C(C)C)OC(=O)/C(C)=C\C)[C@H]1C[C@@H](O)C(C)=C(OC(C)=O)C1=O (some centres not stated)
inactive

Check the records and state Activity for C=C1[C@H]2[C@@H](/C(=C/C)C(=O)[C@H]2OC(=O)C(C)CC)[C@H]([C@@]2(C)CO2)[C@@H](OC(=O)C(C)CC)[C@H]1OC(=O)/C=C(\C)CC (some centres not stated)
inactive

----------
system: A549; experiment: Antiproliferative activity against human A549 cells after 72 hrs by MTT assay; assay type: functional, cell-based; details: A549, 72 h
endpoint_name: pIC50
Here pIC50 is given on a logarithmic scale as minus log10 of the concentration in mol/L.

Report pIC50, nothing else, for this compound: C=C(C)[C@@H]1C[C@@]2(C)C(=CC1=O)[C@@H](O)C[C@@H](OC(=O)/C(C)=C\C)[C@@H]2C
5.20

***
Supply pIC50 value. Item: C=C(C)[C@@H]1C[C@@]2(C)C(=CC1=O)CC[C@@H](OC(=O)CC(C)CC)[C@@H]2C (some centres not stated)
5.18

Annotate the compound C=C(C)[C@@H]1C[C@@]2(C)C(=CC1=O)[C@H](O)C[C@@H](OC(=O)/C(C)=C\C)[C@@H]2C with its measured pIC50.
4.87

----------
test system: MV4-11; assay: Antiproliferative activity against human MV411 cells after 72 hrs by MTT assay; format: functional, cell-based
Activity calls are given as the source filed them. The rule behind the calls is not given here.
endpoint_name: Activity

Could you please provide reported Activity for C=C1[C@@H]2[C@H](OC(=O)C(C)CC)[C@H](OC(C)=O)[C@H]([C@@H](C)OC(=O)C[C@@H](C)O)[C@H]2[C@H]([C@@]2(C)CO2)[C@@H](OC(=O)CC(C)CC)[C@H]1OC(=O)/C=C(\C)CC (stereo partly drawn) ? Thanks!
inactive

Give the measured Activity for C=C1[C@H]2[C@@H]([C@@H]([C@@H](C)OC)C(=O)[C@H]2OC(=O)C(C)CC)[C@H]([C@@]2(C)CO2)[C@@H](OC(=O)C(C)CC)[C@H]1OC(=O)/C=C(\C)CC (stereo partly drawn)
inactive

Name the recorded Activity of the item C=C(C(CC=C(C)C)OC(=O)/C(C)=C\C)[C@@H]1C[C@H](O)[C@](C)(OC)C(=O)[C@H]1OC(=O)/C(C)=C\C (stereo partly drawn) in your answer.
inactive

----------
system: HGC-27; test: Antiproliferative activity against human HGC27 cells after 72 hrs by MTT assay; assay type: functional, cell-based; conditions: HGC-27, 72 h
// values below are reported IC50
Note: unit µM is implicit; provide only the numeric part.

For C=C(C)[C@@H]1C[C@@]2(C)C(=CC1=O)CC[C@@H](OC(=O)CC(C)CC)[C@@H]2C (some centres not stated) , write its IC50.
3.6

Find the measured IC50 of C=C(C)[C@@H]1C[C@@]2(C)C(=CC1=O)[C@H](O)C[C@@H](OC(=O)/C(C)=C\C)[C@@H]2C and report it.
7.2

Identify measured IC50 corresponding to C=C(C(CC=C(C)C)OC(=O)/C(C)=C\C)[C@@H]1C(=O)C(OC(C)=O)=C(C)[C@H](O)[C@H]1OC(=O)/C(C)=C\C (some centres not stated)
2.2

Report measured IC50; entry is CC(=O)O[C@H]1C(=O)[C@@]2(C)[C@H]([C@H](OC(=O)c3ccccc3)[C@]3(O)C[C@H](OC(=O)[C@H](O)[C@@H](NC(=O)c4ccccc4)c4ccccc4)C(C)=C1C3(C)C)[C@]1(OC(C)=O)CO[C@@H]1C[C@@H]2O
0.028

Recall and state the measured IC50 for C=C1[C@@H]2[C@H](OC(=O)C(C)CC)[C@H](OC(C)=O)[C@H]([C@@H](C)OC(=O)C[C@@H](C)O)[C@H]2[C@H]([C@@]2(C)CO2)[C@@H](OC(=O)/C(C)=C\C)[C@H]1OC(=O)/C=C(\C)CC (some centres not stated) .
6.1

Fill in reported IC50 for this entry: C=C(C)[C@@H]1C[C@@]2(C)C(=CC1=O)[C@@H](O)C[C@@H](OC(=O)/C(C)=C\C)[C@@H]2C
2.1

Supply measured IC50 of C=C(C)[C@@H]1C[C@@]2(C)C(=CC1=O)CC[C@@H](OC(=O)CC(C)C)[C@@H]2C in your reply.
5.3

----------
test system: HeLa; experiment: Antiproliferative activity against human HeLa cells after 72 hrs by MTT assay; format: functional, cell-based
Active and inactive are the calls of the source. No cut-off for these calls is given here.
endpoint_name: Activity

In one line, give reported Activity of the entry C/C=C(/C)C(=O)O[C@@H]1CCC2=CC(=O)[C@H]([C@]3(C)CO3)C[C@]2(C)[C@H]1C .
inactive

Please give measured Activity of the following entry: C=C1[C@H]2[C@@H](/C(=C\C)C(=O)[C@H]2OC(=O)C(C)CC)[C@H]([C@@]2(C)CO2)[C@@H](OC(=O)CC(C)CC)[C@H]1OC(=O)/C=C(\C)CC (stereo partly drawn)
inactive

Indicate its recorded Activity; the molecule in question is C=C1[C@H]2[C@@H](/C(=C\C)C(=O)[C@H]2OC(=O)C(C)CC)[C@H]([C@@]2(C)CO2)[C@@H](OC(=O)/C(C)=C\C)[C@H]1OC(=O)/C=C(\C)CC (stereo partly drawn)
inactive

----------
Catalogue of IC50 values
test system: A549; test: Antiproliferative activity against human A549 cells after 72 hrs by MTT assay; type: functional, cell-based; details: A549, 72 h

Enter IC50 (test system A549) for C=C1[C@@H]2[C@H](OC(=O)C(C)CC)[C@H](OC(C)=O)[C@H]([C@@H](C)OC(=O)C[C@@H](C)O)[C@H]2[C@H]([C@@]2(C)CO2)[C@@H](OC(=O)/C(C)=C\C)[C@H]1OC(=O)/C=C(\C)CC (some centres undefined)
12.5 µM

Please indicate recorded IC50 of C=C(C(CC=C(C)C)OC(=O)/C(C)=C\C)[C@@H]1C(=O)C(OC(C)=O)=C(C)[C@H](O)[C@H]1OC(=O)/C(C)=C\C (some centres undefined) measured with A549.
9.8 µM

Report its IC50 with A549 as the test system: CC(=O)O[C@H]1C(=O)[C@@]2(C)[C@H]([C@H](OC(=O)c3ccccc3)[C@]3(O)C[C@H](OC(=O)[C@H](O)[C@@H](NC(=O)c4ccccc4)c4ccccc4)C(C)=C1C3(C)C)[C@]1(OC(C)=O)CO[C@@H]1C[C@@H]2O [PACLITAXEL]
0.051 µM

Consider the record given below.
Provide the reported IC50 (system: A549) for C=C(C)[C@@H]1C[C@@]2(C)C(=CC1=O)CC[C@@H](OC(=O)CC(C)C)[C@@H]2C
9.7 µM
